B1: library; numbered along this chain (parent)
chain: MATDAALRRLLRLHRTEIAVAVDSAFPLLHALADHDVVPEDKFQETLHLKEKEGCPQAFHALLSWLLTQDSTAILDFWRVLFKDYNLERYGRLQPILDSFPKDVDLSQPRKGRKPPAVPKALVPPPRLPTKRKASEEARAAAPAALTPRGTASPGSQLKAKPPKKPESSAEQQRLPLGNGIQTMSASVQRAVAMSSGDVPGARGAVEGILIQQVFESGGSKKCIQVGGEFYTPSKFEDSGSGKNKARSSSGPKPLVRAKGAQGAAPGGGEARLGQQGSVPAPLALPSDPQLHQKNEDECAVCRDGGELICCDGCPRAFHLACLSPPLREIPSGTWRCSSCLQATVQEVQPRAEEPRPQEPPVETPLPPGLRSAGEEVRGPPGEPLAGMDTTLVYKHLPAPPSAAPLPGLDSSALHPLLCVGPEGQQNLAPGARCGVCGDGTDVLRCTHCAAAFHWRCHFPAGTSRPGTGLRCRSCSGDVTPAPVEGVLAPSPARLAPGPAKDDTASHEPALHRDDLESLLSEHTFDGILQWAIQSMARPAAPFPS

Variants of: B1
Experiment: AIRE transcriptional activation functional score (insulin promoter-GFP; nonsense median 0, synonymous median 1) (normalised score); higher = higher AIRE activity (more reporter activation)
Details: with insulin promoter-GFP reporter in HEK293
Returns rule met if the recorded AIRE transcriptional activation functional score is greater than or equal to 1, and rule not met otherwise.

MUTATION_NOTATION: P497C
LABEL: rule met
--
MUTATION_NOTATION: P266Y
LABEL: rule met
--
MUTATION_NOTATION: G467K
LABEL: rule not met
--
MUTATION_NOTATION: G305V
LABEL: rule met
--
MUTATION_NOTATION: S153V
LABEL: rule not met
--
MUTATION_NOTATION: S239P
LABEL: rule met
--
MUTATION_NOTATION: R174V
LABEL: rule not met
--
MUTATION_NOTATION: K243R
LABEL: rule met
--
MUTATION_NOTATION: R378Q
LABEL: rule not met
--
MUTATION_NOTATION: D198E
LABEL: rule met
--
MUTATION_NOTATION: Q189F
LABEL: rule not met
--
MUTATION_NOTATION: N179R
LABEL: rule met
--
MUTATION_NOTATION: P109G
LABEL: rule not met
--
MUTATION_NOTATION: T447L
LABEL: rule met
--
MUTATION_NOTATION: P539G
LABEL: rule met
--
MUTATION_NOTATION: L49D
LABEL: rule not met
--
MUTATION_NOTATION: G242L
LABEL: rule met
--
MUTATION_NOTATION: G467H
LABEL: rule met
--
MUTATION_NOTATION: D70H
LABEL: rule not met
--
MUTATION_NOTATION: C322N
LABEL: rule not met
--
MUTATION_NOTATION: Q534R
LABEL: rule not met

Hey, just so you know, these numbers are from the supplement of paper PMC12667976.
